FYI, the data here is from patent US20260022094A1.

# target-entity: S1P5 receptors (Homo sapiens, UniProt Q9H228)
# Sequence (Q9H228 whole entry): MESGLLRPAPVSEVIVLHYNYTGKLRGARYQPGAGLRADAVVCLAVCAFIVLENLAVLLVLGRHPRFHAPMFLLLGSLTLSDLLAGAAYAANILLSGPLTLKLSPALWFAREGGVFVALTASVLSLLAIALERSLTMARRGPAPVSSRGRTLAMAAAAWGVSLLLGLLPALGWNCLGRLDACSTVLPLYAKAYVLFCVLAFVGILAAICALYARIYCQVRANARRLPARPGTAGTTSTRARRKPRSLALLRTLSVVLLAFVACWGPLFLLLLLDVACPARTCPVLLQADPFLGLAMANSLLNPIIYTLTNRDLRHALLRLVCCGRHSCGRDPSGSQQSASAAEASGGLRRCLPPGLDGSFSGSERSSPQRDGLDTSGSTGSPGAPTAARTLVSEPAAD
# assay-comment: [35S]-GTPγS binding assay on CHO-S1P5 membranes (S1P5 agonism)
# measurement-conditions: membranes of CHO cells expressing recombinant S1P5; measure of S1P5 agonism
Listed next: entries and their corresponding EC50.
quantity-measured: EC50

[[record]]
compound = "CC1(O)CN(Cc2ccc(C3CN(c4c(Cl)cccc4Cl)C3)cc2)C1"
readout_value = "10 to 100 nM"

[[record]]
compound = "CCC1(O)CN(Cc2c(C)cc(C3CN(c4c(Cl)cccc4Cl)C3)cc2C)C1"
readout_value = "100 to 1000 nM"

[[record]]
compound = "Cc1c(-c2ccc(C3CC3)c(Cl)c2)ccc2c1CCC2N1CC(C)(O)C1 (single isomer, unassigned) [Compound 16b]"
readout_value = "1 to 10 nM"

[[record]]
compound = "Cc1c(C#Cc2cccc(F)c2)ccc2c1CCC2N1CC(C)(O)C1 (single isomer, unassigned) [Compound 17a]"
readout_value = "10 to 100 nM"

[[record]]
compound = "Cc1cc(C2CN(c3c(Cl)cccc3Cl)C2)cc(Cl)c1CN1CC(C)(O)C1"
readout_value = "10 to 100 nM"

[[record]]
compound = "Cc1cc(-c2ccc(C3CC3)c(Cl)c2)c(C)c2c1C(N1CC(C)(O)C1)CC2 (single isomer, unassigned) [Compound 26b]"
readout_value = "1 to 10 nM"

[[record]]
compound = "Cc1cc(C#Cc2cccc(F)c2)cc2c1C(N1CC(C)(O)C1)CC2 (single isomer, unassigned) [Compound 13b]"
readout_value = "10 to 100 nM"


---

# target-entity: S1P5 receptors (Homo sapiens, UniProt Q9H228)
# assay-comment: [35S]-GTPγS binding assay on CHO-S1P5 membranes (S1P5 agonism)
# measurement-conditions: membranes of CHO cells expressing recombinant S1P5; measure of S1P5 agonism
quantity-measured: EC50

[[record]]
molecule = "Cc1cc2c(cc1CCc1c(Cl)cccc1Cl)CCC2N1CC(C)(O)C1 (single isomer, unassigned) [Compound 23b]"
target_entity = "S1P5 receptors (Homo sapiens, UniProt Q9H228)"
readout_value = "10 to 100 nM"

[[record]]
molecule = "Cc1cc(-c2ccc(C3CC3)c(Cl)c2)cc2c1C(N1CCC(C)(O)CC1)CC2 (stereo not shown) [Compound 11]"
target_entity = "S1P5 receptors (Homo sapiens, UniProt Q9H228)"
readout_value = "1000 to 10000 nM"

[[record]]
molecule = "CC1(O)CCN(Cc2ccc(N3CC(c4c(Cl)cccc4Cl)C3)cc2)CC1 [Compound 32]"
target_entity = "S1P5 receptors (Homo sapiens, UniProt Q9H228)"
readout_value = "1000 to 10000 nM"

[[record]]
molecule = "CC1(O)CN(Cc2ccc(N3CC(c4c(Cl)cccc4Cl)C3)cn2)C1 [Compound 66]"
target_entity = "S1P5 receptors (Homo sapiens, UniProt Q9H228)"
readout_value = "100 to 1000 nM"


---

# target-entity: UniProt:Q9H228
# assay-comment: [35S]-GTPγS binding assay on CHO-S1P5 membranes (S1P5 agonism)
# measurement-conditions: membranes of CHO cells expressing recombinant S1P5; measure of S1P5 agonism
Listed next: entries and their corresponding EC50.
quantity-measured: EC50

[[record]]
compound = "Cc1cc(CCc2c(Cl)cccc2Cl)cc2c1C(N1CC(C)(O)C1)CC2 (single isomer, unassigned) [Compound 14b]"
readout_value = "1 to 10 nM"

[[record]]
compound = "Cc1cc(C2CN(c3c(Cl)cccc3Cl)C2)cc(C)c1CN1CC(C)(O)C1 [Compound 35]"
readout_value = "10 to 100 nM"

[[record]]
compound = "Cc1cc(C2CN(c3cccc(F)c3)C2)cc(C)c1CN1CC(C)(O)C1 [Compound 45]"
readout_value = "1000 to 10000 nM"

[[record]]
compound = "Cc1c(OCc2c(Cl)cccc2Cl)ccc2c1CCC2NCC(C)(C)O (single isomer, unassigned) [Compound 20b]"
readout_value = "100 to 1000 nM"

[[record]]
compound = "Cc1cc(-c2ccc(C3CC3)c(Cl)c2)c(C)c2c1C(N1CC(C)(O)C1)CC2 (single isomer, unassigned) [Compound 26a]"
readout_value = "1 to 10 nM"

[[record]]
compound = "Cc1cc(CN2CC(C)(O)C2)cc(C)c1N1CC(c2c(Cl)cccc2Cl)C1 [Compound 63]"
readout_value = "1 to 10 nM"

[[record]]
compound = "Cc1cc2c(cc1C#Cc1cccc(F)c1)CCC2N1CC(C)(O)C1 (single isomer, unassigned) [Compound 22b]"
readout_value = "10 to 100 nM"

[[record]]
compound = "CC1(O)CN(Cc2ccc(N3CC(c4c(Cl)cccc4Cl)C3)c(F)c2)C1 [Compound 67]"
readout_value = "10 to 100 nM"

[[record]]
compound = "CC1(O)CN(C2CCc3cc(OCc4c(Cl)cccc4Cl)ccc32)C1 (single isomer, unassigned) [Compound 3b]"
readout_value = "10 to 100 nM"

[[record]]
compound = "CCc1cc(C2CN(c3c(Cl)cccc3Cl)C2)cc(CC)c1CN1CC(C)(O)C1 [Compound 52]"
readout_value = "100 to 1000 nM"

[[record]]
compound = "CC1(O)CCN(C2CCc3cc(-c4ccc(C5CC5)c(Cl)c4)ccc32)C1 (stereo not shown) [Compound 7]"
readout_value = "100 to 1000 nM"

[[record]]
compound = "Cc1cc(CCc2c(Cl)cccc2Cl)cc2c1C(N1CC(C)(O)C1)CC2 (single isomer, unassigned) [Compound 14a]"
readout_value = "1 to 10 nM"

[[record]]
compound = "CC1(O)CN(Cc2ccc(N3CC(c4c(Cl)cccc4Cl)C3)cc2F)C1 [Compound 65]"
readout_value = "10 to 100 nM"

[[record]]
compound = "Cc1cc(C2CN(c3c(Cl)cccc3Cl)C2)cc(C)c1CN1CCC(C)(O)CC1 [Compound 34]"
readout_value = "100 to 1000 nM"

[[record]]
compound = "Cc1c(-c2ccc(C3CC3)c(Cl)c2)cc2c(c1C)C(N1CC(C)(O)C1)CC2 (single isomer, unassigned) [Compound 27a]"
readout_value = "1 to 10 nM"

[[record]]
compound = "CC1(O)CN(Cc2ccc(C#Cc3c(F)cccc3F)cc2)C1 [Compound 28]"
readout_value = "100 to 1000 nM"

[[record]]
compound = "CC1(O)CN(Cc2ccc(C3CN(c4c(Cl)cccc4Cl)C3)c3ccccc23)C1 [Compound 55]"
readout_value = "10 to 100 nM"

[[record]]
compound = "Cc1cc(C2CN(c3c(Cl)cccc3Cl)C2)cc(C)c1CN1CC(O)(CF)C1 [Compound 39]"
readout_value = "100 to 1000 nM"

[[record]]
compound = "CC1(O)CN(C2CCc3cc(C#Cc4ccccc4F)ccc32)C1 (single isomer, unassigned) [Compound 1a]"
readout_value = "10 to 100 nM"

[[record]]
compound = "CC1(O)CN(C2CCc3cc(-c4ccc(C5CC5)c(Cl)c4)ccc32)C1 (single isomer, unassigned) [Compound 5a]"
readout_value = "10 to 100 nM"

[[record]]
compound = "Cc1cc2c(c(C)c1-c1ccc(C3CC3)c(Cl)c1)CCC2N1CC(C)(O)C1 (single isomer, unassigned) [Compound 25b]"
readout_value = "1 to 10 nM"

[[record]]
compound = "Cc1cc(-c2ccc(C3CC3)c(Cl)c2)cc2c1C(N1CC(C)(O)C1)CC2 (single isomer, unassigned) [Compound 10a]"
readout_value = "1 to 10 nM"

[[record]]
compound = "CC1(O)CN(Cc2ccc(C#Cc3cccc(F)c3)cc2)C1 [Compound 29]"
readout_value = "100 to 1000 nM"

[[record]]
compound = "Cc1cc(C2CN(c3c(Cl)cccc3Cl)C2)cc(F)c1CN1CC(C)(O)C1 [Compound 48]"
readout_value = "10 to 100 nM"

[[record]]
compound = "CC1(O)CN(Cc2ccc(N3CC(c4c(Cl)cccc4Cl)C3)cc2)C1 [Compound 33]"
readout_value = "100 to 1000 nM"

[[record]]
compound = "Cc1c(-c2ccc(C3CC3)c(Cl)c2)ccc2c1CCC2N1CC(C)(O)C1 (single isomer, unassigned) [Compound 16a]"
readout_value = "1 to 10 nM"

[[record]]
compound = "Cc1cc(C2CN(c3c(Cl)cccc3Cl)C2)cc(C)c1CN1CC(O)(C(F)(F)F)C1 [Compound 41]"
readout_value = "100 to 1000 nM"

[[record]]
compound = "CCc1cc(C2CN(c3c(Cl)cccc3Cl)C2)cc(C)c1CN1CC(C)(O)C1 [Compound 51]"
readout_value = "10 to 100 nM"

[[record]]
compound = "CC1(O)CCN(C2CCc3cc(C4CN(c5c(Cl)cccc5Cl)C4)ccc32)C1 (stereo not shown) [Compound 9]"
readout_value = "100 to 1000 nM"

[[record]]
compound = "Cc1cc(-c2ccc(C3CC3)c(Cl)c2)cc2c1C(N1CC(C)(O)C1)CC2 (single isomer, unassigned) [Compound 10b]"
readout_value = "1 to 10 nM"

[[record]]
compound = "CC1(O)CN(Cc2ccc(C3CN(c4c(Cl)cccc4Cl)C3)cc2C2CC2)C1 [Compound 50]"
readout_value = "10 to 100 nM"

